# melting point listing for each entry below
assay.metric: melting point

- compound: "COC1(C)c2ccc(C#Cc3cc(Cl)ccc3OCC(=O)O)cc2S(=O)(=O)C1(C)C (stereo not shown) [Example 162]"
  result: "80 to 95 °C"
- compound: "CCS(=O)(=O)c1ccc(F)c(C#Cc2cc(Cl)ccc2OCC(=O)O)c1 [Example 104]"
  result: "165 to 169 °C"
- compound: "CC(C)CS(=O)(=O)c1ccc(F)c(C#Cc2cc(Cl)ccc2OCC(=O)O)c1 [Example 105]"
  result: "141 to 143 °C"
- compound: "COCCS(=O)(=O)c1ccc(F)c(C#Cc2cc(Cl)ccc2OCC(=O)O)c1 [Example 106]"
  result: "125 to 128 °C"

###

# protocol.description: In vivo pharmacokinetic evaluation in rat
# Parameters: species or system Sprague Dawley male rats
# experimental.setup: male, Sprague Dawley, plasma, oral gavage 5 mg/Kg
# Description: In order to study the pharmacokinetic (PK) profile of test compounds in vivo, Sprague Dawley male rats or C57BL/6 female mice were dosed intravenously or after oral gavage. […] PK profile in rat was obtained from 3 animals per dosing route and mouse PK profile was determined from 3 animals for each time points. […]
assay.metric: AUC (ng·h/mL)

- smiles.notation: "CCCS(=O)(=O)c1cccc(C#Cc2cc(Cl)ccc2OCC(=O)O)c1"
  readout.unit: "ng·h/mL"
  numeric.value: 3700

###

# experimental.target: CRTH2 (Homo sapiens, UniProt Q9Y5Y4)
# Sequence (Q9Y5Y4 1-395): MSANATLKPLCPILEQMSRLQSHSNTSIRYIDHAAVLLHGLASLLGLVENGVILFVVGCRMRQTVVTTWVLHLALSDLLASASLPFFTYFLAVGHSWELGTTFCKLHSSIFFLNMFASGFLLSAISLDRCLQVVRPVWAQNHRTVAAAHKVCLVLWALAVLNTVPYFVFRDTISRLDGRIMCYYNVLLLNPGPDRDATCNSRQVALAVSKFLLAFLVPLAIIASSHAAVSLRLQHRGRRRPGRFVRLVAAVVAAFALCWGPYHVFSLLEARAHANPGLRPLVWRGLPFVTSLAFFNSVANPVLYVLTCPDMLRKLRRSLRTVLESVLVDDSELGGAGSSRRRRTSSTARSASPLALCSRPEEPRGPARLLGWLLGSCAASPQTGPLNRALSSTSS
# protocol.description: Cellular Dielectric Spectroscopy (CHO-CRTH2 cells)
# Assay type: cell-based
# Parameters: expressed in transfected cells; host or cells: CHO-CRTH2 cells
# experimental.setup: partial agonists, agonist activity without PGD2
pEC50: −log10 of the molar value.
# pEC50 listing for each entry below
assay.metric: pEC50

- smiles.notation: "CS(=O)(=O)c1ccc(F)c(C#Cc2cc(Cl)ccc2OCC(=O)O)c1"
  assay.metric: "pEC50"
  numeric.value: 9.00
- smiles.notation: "Cc1ccncc1C#Cc1cc(Cl)ccc1OCC(=O)O"
  assay.metric: "pEC50"
  numeric.value: 7.28
- smiles.notation: "CCCS(=O)(=O)c1cccc(C#Cc2cc(-c3ccccc3)ccc2OCC(=O)O)c1"
  assay.metric: "pEC50"
  numeric.value: 7.13
- smiles.notation: "Cc1ccncc1C#Cc1cc(C#N)ccc1OCC(=O)O"
  assay.metric: "pEC50"
  numeric.value: 6.94
- smiles.notation: "CS(=O)(=O)c1ccc(F)c(C#Cc2cc(C#N)ccc2OCC(=O)O)c1"
  assay.metric: "pEC50"
  numeric.value: 8.22
- smiles.notation: "CCCS(=O)(=O)c1cccc(C#Cc2cc(C(F)(F)F)ccc2OCC(=O)O)c1"
  assay.metric: "pEC50"
  numeric.value: 7.62

###

# experimental.target: CRTH2 (Homo sapiens)
# Sequence (Q9Y5Y4 1-395): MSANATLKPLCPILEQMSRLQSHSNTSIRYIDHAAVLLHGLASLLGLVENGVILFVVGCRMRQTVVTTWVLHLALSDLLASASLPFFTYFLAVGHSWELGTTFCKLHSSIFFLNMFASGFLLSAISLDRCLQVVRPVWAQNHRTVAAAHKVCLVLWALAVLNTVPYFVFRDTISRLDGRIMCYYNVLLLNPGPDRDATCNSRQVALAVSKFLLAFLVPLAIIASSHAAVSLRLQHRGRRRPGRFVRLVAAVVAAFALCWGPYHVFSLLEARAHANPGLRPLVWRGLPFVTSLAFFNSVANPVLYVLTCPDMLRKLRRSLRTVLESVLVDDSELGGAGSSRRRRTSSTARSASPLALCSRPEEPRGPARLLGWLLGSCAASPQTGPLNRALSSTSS
# protocol.description: Cellular Dielectric Spectroscopy (CHO-CRTH2 cells)
# Format: cell-based
# Parameters: expressed in transfected cells; host or cells: CHO-CRTH2 cells
# experimental.setup: antagonist mode, fixed concentration of PGD2 (EC80)
assay.metric: IC50 (nM)

- smiles.notation: "CN(C)S(=O)(=O)c1cncc(C#Cc2cc(Cl)ccc2OCC(=O)O)c1"
  assay.metric: "IC50"
  numeric.value: 23
- smiles.notation: "CCCc1ccncc1C#Cc1cc(Cl)ccc1OCC(=O)O"
  assay.metric: "IC50"
  numeric.value: 25
- smiles.notation: "CC(C)c1ccc(S(C)(=O)=O)cc1C#Cc1cc(C#N)ccc1OCC(=O)O"
  assay.metric: "IC50"
  numeric.value: 15
- smiles.notation: "CC(C)S(=O)(=O)c1ccc(F)c(C#Cc2cc(Cl)ccc2OCC(=O)O)c1"
  assay.metric: "IC50"
  numeric.value: 16
- smiles.notation: "CCCS(=O)(=O)c1cccc(C#Cc2cc(Cl)ccc2OCC(=O)O)c1"
  assay.metric: "IC50"
  numeric.value: 22

###

# protocol.description: In vivo pharmacokinetic evaluation in mouse
# Parameters: species or system C57BL/6 female mice
# experimental.setup: female, C57BL/6, mouse, plasma, iv; mice, i.v. 1 mg/Kg

- molecule: "CN(C)S(=O)(=O)c1ccc(F)c(C#Cc2cc(Cl)ccc2OCC(=O)O)c1 [Example 107]"
  readout.unit: "mL/min/kg"
  clearance: 10
- molecule: "CC(C)S(=O)(=O)c1ccc(F)c(C#Cc2cc(Cl)ccc2OCC(=O)O)c1 [Example 102]"
  readout.unit: "mL/min/kg"
  clearance: 5.83
- molecule: "CN(C)S(=O)(=O)c1cncc(C#Cc2cc(Cl)ccc2OCC(=O)O)c1 [Example 35]"
  readout.unit: "mL/min/kg"
  clearance: 13.3
- molecule: "CCCS(=O)(=O)c1ccc(C)c(C#Cc2cc(Cl)ccc2OCC(=O)O)c1 [Example 38]"
  readout.unit: "mL/min/kg"
  clearance: 16.7

###

# experimental.target: UniProtKB Q9Y5Y4
# Sequence (Q9Y5Y4 1-395): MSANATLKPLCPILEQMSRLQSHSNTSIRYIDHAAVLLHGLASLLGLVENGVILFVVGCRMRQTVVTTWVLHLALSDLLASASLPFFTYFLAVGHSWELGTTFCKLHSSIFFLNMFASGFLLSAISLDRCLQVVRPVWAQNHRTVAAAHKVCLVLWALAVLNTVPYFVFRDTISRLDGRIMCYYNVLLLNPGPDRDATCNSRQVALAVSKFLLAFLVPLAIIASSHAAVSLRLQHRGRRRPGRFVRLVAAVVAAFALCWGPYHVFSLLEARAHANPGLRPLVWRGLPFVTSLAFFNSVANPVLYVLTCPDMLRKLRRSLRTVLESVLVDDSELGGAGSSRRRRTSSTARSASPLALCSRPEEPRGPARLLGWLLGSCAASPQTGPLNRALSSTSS
# protocol.description: Cellular Dielectric Spectroscopy (CHO-CRTH2 cells)
# Type: cell-based
# Design: expressed in transfected cells; host or cells: CHO-CRTH2 cells
# experimental.setup: antagonist mode, fixed concentration of PGD2 (EC80)

- smiles.notation: "CC(C)Cc1ccncc1C#Cc1cc(Cl)ccc1OCC(=O)O"
  IC50: "269 nM"
- smiles.notation: "CCc1ccc(S(C)(=O)=O)cc1C#Cc1cc(Cl)ccc1OCC(=O)O"
  IC50: "23 nM"
- smiles.notation: "CC(C)c1ccc(S(C)(=O)=O)cc1C#Cc1cc(Cl)ccc1OCC(=O)O"
  IC50: "21 nM"
- smiles.notation: "CCCc1ccc(S(C)(=O)=O)cc1C#Cc1cc(C#N)ccc1OCC(=O)O"
  IC50: "53 nM"

###

# experimental.target: UniProt Q9Y5Y4
# Sequence (Q9Y5Y4 1-395): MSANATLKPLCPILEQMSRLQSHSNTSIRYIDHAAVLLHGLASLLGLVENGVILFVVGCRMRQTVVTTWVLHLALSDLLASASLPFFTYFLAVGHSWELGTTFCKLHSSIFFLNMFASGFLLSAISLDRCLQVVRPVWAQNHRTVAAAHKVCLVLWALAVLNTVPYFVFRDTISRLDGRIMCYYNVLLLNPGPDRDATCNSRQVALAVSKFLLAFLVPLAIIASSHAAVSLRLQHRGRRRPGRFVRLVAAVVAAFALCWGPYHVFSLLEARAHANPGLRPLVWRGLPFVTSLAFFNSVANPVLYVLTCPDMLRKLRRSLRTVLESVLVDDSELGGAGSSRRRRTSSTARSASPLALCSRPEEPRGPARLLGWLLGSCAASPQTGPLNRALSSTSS
# protocol.description: Radioligand binding Scintillation Proximity Assay ([3H]PGD2, hCRTH2-CHO cell membranes)
# Set-up: host or cells: CHO cells
# experimental.setup: 1.5 nM [3H]PGD2, hCRTH2-CHO cell membranes, SPA
assay.metric: log10(IC50) (log10 of the value in nM)

- compound: "CS(=O)(=O)c1ccc(C#Cc2cc(Cl)ccc2OCC(=O)O)cc1 [Example 90]"
  assay.metric: "log10(IC50)"
  numeric.value: 2.19
- compound: "Cc1ccc(S(=O)(=O)CCO)cc1C#Cc1cc(Cl)ccc1OCC(=O)O [Example 52]"
  assay.metric: "log10(IC50)"
  numeric.value: 1.40
- compound: "O=C(O)COc1ccc(Cl)cc1C#Cc1ccc2c(c1)S(=O)(=O)c1ccccc1-2 [Example 154]"
  assay.metric: "log10(IC50)"
  numeric.value: 1.15
- compound: "Cc1ccc(S(=O)(=O)CCCO)cc1C#Cc1cc(Cl)ccc1OCC(=O)O [Example 54]"
  assay.metric: "log10(IC50)"
  numeric.value: 1.00
- compound: "Cc1ccc(S(=O)(=O)CCO)cc1C#Cc1cc(C#N)ccc1OCC(=O)O [Example 64]"
  assay.metric: "log10(IC50)"
  numeric.value: 2.13
- compound: "CCS(=O)(=O)c1ccc(C)c(C#Cc2cc(C#N)ccc2OCC(=O)O)c1 [Example 63]"
  assay.metric: "log10(IC50)"
  numeric.value: 1.52
- compound: "CCCS(=O)(=O)c1ccc(F)c(C#Cc2cc(Cl)cnc2OCC(=O)O)c1 [Example 129]"
  assay.metric: "log10(IC50)"
  numeric.value: 1.00
- compound: "CC(=O)Nc1ccc(C#Cc2cc(Cl)ccc2OCC(=O)O)cc1 [Example 152]"
  assay.metric: "log10(IC50)"
  numeric.value: 1.45
- compound: "O=C(O)COc1ccccc1C#Cc1ccccc1Cl [Example 45]"
  assay.metric: "log10(IC50)"
  numeric.value: 2.98
- compound: "CC(C)(C)N1C(=O)c2ccc(C#Cc3cc(Cl)ccc3OCC(=O)O)cc2S1(=O)=O [Example 157]"
  assay.metric: "log10(IC50)"
  numeric.value: 1.23
- compound: "CN(c1cncc(C#Cc2cc(C#N)ccc2OCC(=O)O)c1)S(C)(=O)=O [Example 72]"
  assay.metric: "log10(IC50)"
  numeric.value: 2.56
- compound: "O=C(O)COc1ccc(Cl)cc1C#Cc1ccc2c(c1)S(=O)(=O)C=C2 [Example 156]"
  assay.metric: "log10(IC50)"
  numeric.value: 1.51
- compound: "CCCS(=O)(=O)c1cccc(C#Cc2c(OCC(=O)O)ccc3ccccc23)c1 [Example 148]"
  assay.metric: "log10(IC50)"
  numeric.value: 1.75
- compound: "CCCCCCc1ccncc1C#Cc1cc(Cl)ccc1OCC(=O)O [Example 29]"
  assay.metric: "log10(IC50)"
  numeric.value: 1.71
